B1: Spectrin alpha chain, erythrocytic 1, residues 979 to 1036; numbered along this chain, P02549 (parent)
chain: EQRVMALYDFQARSPREVTMKKGDVLTLLSSINKDWWKVEAADHQGIVPAVYVRRLAH

variants of: B1; assay: abundance fitness (aPCA) (normalised: wild type 0, dead -1); higher = more abundant; growth selection in yeast, the domain comes from the species named; conditions: Homo sapiens
measurement.label: abundance fitness

What does the data say about its abundance fitness? Entry: `H44C`
-0.016

Lookup `V39F`
-0.658

Note, next up: `E40M`
-0.125

Now try `L29S` .
-0.134

Likewise for `P15L` ?
-0.705

Item: `Q2E`
0.108

Further, for `V4R` ?
-0.877

Same again, this time with `S31E`
0.518

Record: `S14D`
0.134

Now try `V48K` .
-0.56

Also check `N33A`
-0.751

Quick one: `V18L`
0.138

Queued: `K38V`
0.303

# iterate: `A41T`
0.043

Would you mind doing `I47W` as well?
0.461

Same thing, different variant: `K21G`
-0.652

Then what about the variant `K34V` ?
-0.741

Moving on to the next variant: `V18P`
-0.71

Can you check `S14P` next?
-0.802

Same read-out for `A6S` ?
-0.496

One more variant: `D9V`
-0.934

Record: `T19S`
0.249

And the next one, `Q2P` ?
-0.874

Same question for `N33C` please.
-0.929

Repeat for the following variant: `P15D`
0.163

Also need `E40L` , thanks.
-0.652

Now consider `H44T` and answer again.
-0.107

// query: `Y52L`
-0.284

Also `P49S` , if possible.
-0.497

What about `P15K` ?
0.089

Moving on to `A12G`
-0.779

Thanks! And `V39P` ?
-0.319

Let us now turn to `D43Q`
0.413

Check `K21F` too.
-0.643

From: the Human Domainome abundance scans (Beltran et al. 2025)
